molecular target: Integrin alpha-V/beta-6 (Homo sapiens, UniProt P06756+P18564); experiment: Inhibition of integrin alphavbeta6 (unknown origin)-mediated K562 cell adhesion to LAPb1 coated surface by fluorescence analysis; type: cell-based
Sequence (P06756 31-889 limits assumed): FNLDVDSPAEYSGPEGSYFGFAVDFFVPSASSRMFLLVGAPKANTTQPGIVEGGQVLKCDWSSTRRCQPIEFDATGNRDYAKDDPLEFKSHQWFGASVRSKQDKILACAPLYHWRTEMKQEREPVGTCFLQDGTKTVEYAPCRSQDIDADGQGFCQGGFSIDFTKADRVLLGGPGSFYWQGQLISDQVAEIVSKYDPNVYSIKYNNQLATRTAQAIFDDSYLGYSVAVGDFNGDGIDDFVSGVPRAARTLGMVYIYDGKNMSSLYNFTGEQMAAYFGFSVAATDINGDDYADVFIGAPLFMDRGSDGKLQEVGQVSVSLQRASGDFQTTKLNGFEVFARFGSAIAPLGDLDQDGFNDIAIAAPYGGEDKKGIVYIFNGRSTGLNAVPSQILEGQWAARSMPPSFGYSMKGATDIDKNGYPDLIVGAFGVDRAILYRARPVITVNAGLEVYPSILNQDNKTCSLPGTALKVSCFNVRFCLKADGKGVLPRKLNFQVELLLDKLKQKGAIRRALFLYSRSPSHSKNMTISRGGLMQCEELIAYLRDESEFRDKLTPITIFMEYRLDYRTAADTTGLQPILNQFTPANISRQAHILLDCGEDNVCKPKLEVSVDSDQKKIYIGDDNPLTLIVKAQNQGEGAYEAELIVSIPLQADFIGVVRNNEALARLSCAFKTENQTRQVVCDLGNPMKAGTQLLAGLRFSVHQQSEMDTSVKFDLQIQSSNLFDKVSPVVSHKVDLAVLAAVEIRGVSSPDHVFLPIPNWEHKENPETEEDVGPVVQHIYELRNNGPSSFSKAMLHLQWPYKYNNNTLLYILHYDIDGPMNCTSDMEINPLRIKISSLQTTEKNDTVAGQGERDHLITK
Sequence (P06756 891-1048 limits assumed): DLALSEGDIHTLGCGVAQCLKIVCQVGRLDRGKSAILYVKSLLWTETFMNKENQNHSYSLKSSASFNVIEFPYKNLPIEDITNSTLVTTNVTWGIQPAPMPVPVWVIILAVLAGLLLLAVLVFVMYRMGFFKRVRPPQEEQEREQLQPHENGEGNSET
Sequence (P18564 22-788 limits assumed): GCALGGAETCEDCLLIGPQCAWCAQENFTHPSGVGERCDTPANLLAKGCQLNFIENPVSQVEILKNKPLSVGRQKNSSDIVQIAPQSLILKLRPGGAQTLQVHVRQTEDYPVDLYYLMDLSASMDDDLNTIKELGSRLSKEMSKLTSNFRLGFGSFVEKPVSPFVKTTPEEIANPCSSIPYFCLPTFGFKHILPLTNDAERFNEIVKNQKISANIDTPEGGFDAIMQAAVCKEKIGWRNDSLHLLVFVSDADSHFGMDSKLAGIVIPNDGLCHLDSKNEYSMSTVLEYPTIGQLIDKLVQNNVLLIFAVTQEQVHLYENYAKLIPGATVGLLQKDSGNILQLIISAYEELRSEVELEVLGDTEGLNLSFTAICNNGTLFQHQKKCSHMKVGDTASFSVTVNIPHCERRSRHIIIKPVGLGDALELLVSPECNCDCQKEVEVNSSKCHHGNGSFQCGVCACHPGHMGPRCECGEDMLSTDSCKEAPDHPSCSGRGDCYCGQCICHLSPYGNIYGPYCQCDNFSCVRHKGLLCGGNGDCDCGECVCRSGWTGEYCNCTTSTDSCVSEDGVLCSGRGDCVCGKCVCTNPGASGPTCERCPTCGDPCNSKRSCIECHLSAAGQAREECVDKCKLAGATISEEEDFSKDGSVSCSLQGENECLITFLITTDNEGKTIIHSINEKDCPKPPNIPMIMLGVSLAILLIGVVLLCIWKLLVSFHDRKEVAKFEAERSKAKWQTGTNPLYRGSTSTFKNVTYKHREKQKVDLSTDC
Measured Metric: pIC50
In textbook form, pIC50 equals minus log to base ten of the concentration in mol/L.

For orientation, consider the following solved cases.
Quick one: give measured pIC50 for N#Cc1cccc(C(CC(=O)O)NC(=O)CCCCc2ccc3c(n2)NCCC3)c1 (racemic)
6.60

Quick one: give measured pIC50 for O=C(O)CC(NC(=O)CCCCc1ccc2c(n1)NCCC2)c1cccc(Cl)c1 (racemic)
6.60

Quick one: give measured pIC50 for Cc1ccc(C(CC(=O)O)NC(=O)CCCCc2ccc3c(n2)NCCC3)cc1 (racemic)
6.10

Further cases:
Quick one: give measured pIC50 for N#Cc1ccc(C(CC(=O)O)NC(=O)CCCCc2ccc3c(n2)NCCC3)cc1 (racemic)
6.40

Quick one: give measured pIC50 for O=C(O)CC(NC(=O)CCCCc1ccc2c(n1)NCCC2)c1cccc(Cl)c1Cl (racemic)
5.10

Quick one: give measured pIC50 for O=C(O)CC(NC(=O)CCCCc1ccc2c(n1)NCCC2)c1cccc(OC(F)(F)F)c1 (racemic)
6.70

Quick one: give measured pIC50 for O=C(O)CC(NC(=O)CCCCc1ccc2c(n1)NCCC2)c1cc(Cl)cc(Cl)c1 (single isomer, unassigned; enantiomer 2)
6.80

Quick one: give measured pIC50 for O=C(O)CC(NC(=O)CCCCc1ccc2c(n1)NCCC2)c1ccc(Cl)c(C(F)(F)F)c1 (single isomer, unassigned; enantiomer 1)
7.20

Quick one: give measured pIC50 for O=C(O)CC(NC(=O)CCCCc1ccc2c(n1)NCCC2)c1ccc(-c2ccccc2)cc1 (racemic)
6.40

Quick one: give measured pIC50 for O=C(O)CC(NC(=O)CCCCc1ccc2c(n1)NCCC2)c1ccc2c(c1)OCO2 (racemic)
6.60

Quick one: give measured pIC50 for O=C(O)CC(NC(=O)CCCCc1ccc2c(n1)NCCC2)c1cccc(F)c1 (racemic)
6.10

Quick one: give measured pIC50 for O=C(O)CC(NC(=O)CCCCc1ccc2c(n1)NCCC2)c1ccc(C(F)(F)F)cc1 (racemic)
6.20

Quick one: give measured pIC50 for O=C(O)CC(NC(=O)CCCCc1ccc2c(n1)NCCC2)c1ccccc1 (racemic)
5.70

Quick one: give measured pIC50 for O=C(O)CC(NC(=O)CCCCc1ccc2c(n1)NCCC2)c1ccc2c(c1)CCC2 (racemic)
6.80

Quick one: give measured pIC50 for Cc1ccc(C(CC(=O)O)NC(=O)CCCCc2ccc3c(n2)NCCC3)cc1C (racemic)
6.70

Quick one: give measured pIC50 for O=C(O)CC(NC(=O)CCCCc1ccc2c(n1)NCCC2)c1ccc(Cl)c(Cl)c1 (racemic)
6.70
